Where these numbers come from: patent US8013153B2

Observed IC50, system HER2 cytoplasmic domain (Homo sapiens, UniProt P04626).

# compound, IC50
data = [
    ("CON=Cc1c(N)ncnc1Oc1ccc(NC(=O)OC)c(Cl)c1", "> 10 µM"),
    ("CON=Cc1c(N)ncnc1Oc1ccc(NC(=O)NC(C)C)c(Cl)c1", "> 10 µM"),
]

Next:
Record summary for CCNC(=O)Nc1ccc(Oc2ncnc(N)c2C=NOC)cc1 : reported IC50 = > 100 µM

* * *

target.system: rat VEGF-R2 kinase domain (Rattus norvegicus)
Construct: amino acids 786-1343 of the rat VEGF-R2 kinase domain; polyhistidine (N)
Sequence (O08775 786-1343): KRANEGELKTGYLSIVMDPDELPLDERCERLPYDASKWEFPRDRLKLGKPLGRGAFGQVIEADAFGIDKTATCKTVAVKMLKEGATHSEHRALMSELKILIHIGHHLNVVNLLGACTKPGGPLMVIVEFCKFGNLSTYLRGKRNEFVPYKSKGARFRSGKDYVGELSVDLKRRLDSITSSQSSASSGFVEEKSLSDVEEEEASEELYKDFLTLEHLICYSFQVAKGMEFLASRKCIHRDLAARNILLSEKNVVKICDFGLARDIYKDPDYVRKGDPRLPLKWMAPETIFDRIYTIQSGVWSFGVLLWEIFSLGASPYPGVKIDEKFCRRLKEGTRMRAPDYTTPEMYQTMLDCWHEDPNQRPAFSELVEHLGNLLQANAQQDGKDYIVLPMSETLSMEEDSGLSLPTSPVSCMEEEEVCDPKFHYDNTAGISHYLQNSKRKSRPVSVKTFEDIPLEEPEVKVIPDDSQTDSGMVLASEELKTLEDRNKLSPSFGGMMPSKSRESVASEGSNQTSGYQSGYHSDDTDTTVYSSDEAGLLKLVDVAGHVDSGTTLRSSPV
test.method.notes: VEGF-R2 Screening Assay
Type: biochemical
particulars: > means no observed 50% inhibition at the indicated test concentration; ~ means approximately 50% inhibition at that concentration; read-out: IC50 VEGF-R2
pIC50: −log10 of the molar value.
reported.property: pIC50

Take a look at these entries with their results.
# molecule, pIC50
measured = [
    ("CON=Cc1c(N)ncnc1Oc1ccc(OCc2ccccc2)cc1 [Cpd 110]", "~6.00"),
    ("CNC(=O)n1c(C)cc2c(F)c(Oc3ncnc(N)c3C=NOC)ccc21 [Cpd 43]", "~6.00"),
    ("CON=Cc1c(N)ncnc1Oc1ccc2c(c1)cc(C)n2C(=O)NCc1ccccc1 [Cpd 47]", "< 4.00"),
    ("CON=Cc1c(N)ncnc1Oc1ccc(F)c(Cl)c1 [Cpd 109]", "< 4.00"),
    ("CON=Cc1c(N)ncnc1Oc1ccc(OC(=O)Nc2cccc(Cl)c2)cc1 [Cpd 105]", "< 4.00"),
    ("Cc1cc2c(F)c(Oc3ncnc(N)c3C=NOCCCN3CCOCC3)ccc2[nH]1 [Cpd 19]", "~7.00"),
]

Next:
Record summary for CON=Cc1c(N)ncnc1OCc1ccc2ccccc2c1 [Cpd 115] : reported pIC50 = < 5.00
